Provide the reported viability, T/C of each item.
System: K12877-001-R-J1-PDC complex spheroid viability;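 further: tumour cells co-cultured with HUVEC and mesenchymal stem cells in spheroids; spheroids exposed to agents for one week before readout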
assay text: Anticancer human tumor K12877-001-R-J1-PDC patient-derived lung adenocarcinoma cell line growth inhibition [RAS]
setup conditions: second compound 3.16 µM; first compound 0.00316 µM; hits give low values
Your answer should be a plain number; it is taken to be in %.

Measured viability, T/C of CC(C)n1nc(-c2ccc3oc(N)nc3c2)c2c(N)ncnc21 + C#Cc1c(F)ccc2cc(O)cc(-c3ncc4c(N5CC6CCC(C5)N6)nc(OCC56CCCN5CC(F)C6)nc4c3F)c12 : 91.7

Measured viability, T/C of Nc1ccn(C2OC(CO)C(O)C2(F)F)c(=O)n1 (stereo unspecified) + C#Cc1c(F)ccc2cc(O)cc(-c3ncc4c(N5CC6CCC(C5)N6)nc(OCC56CCCN5CC(F)C6)nc4c3F)c12 : 106

Measured viability, T/C of C=CC(=O)N1CCN(c2nc(OCC3CCCN3C)nc3c(F)c(-c4nc(N)cc(C)c4C(F)(F)F)c(Cl)cc23)C(C)C1 (stereo unspecified) + C#Cc1c(F)ccc2cc(O)cc(-c3ncc4c(N5CC6CCC(C5)N6)nc(OCC56CCCN5CC(F)C6)nc4c3F)c12 : 106

Measured viability, T/C of CCN1CCN(Cc2ccc(Nc3ncc(F)c(-c4cc(F)c5nc(C)n(C(C)C)c5c4)n3)nc2)CC1 + C#Cc1c(F)ccc2cc(O)cc(-c3ncc4c(N5CC6CCC(C5)N6)nc(OCC56CCCN5CC(F)C6)nc4c3F)c12 : 108

Measured viability, T/C of O=C(c1ccc(F)c(F)c1Nc1ccc(I)cc1F)N1CC(O)([C@@H]2CCCCN2)C1 + C#Cc1c(F)ccc2cc(O)cc(-c3ncc4c(N5CC6CCC(C5)N6)nc(OCC56CCCN5CC(F)C6)nc4c3F)c12 : 110

Measured viability, T/C of C=CC(=O)Nc1cc(Nc2nccc(-c3cn(C)c4ccccc34)n2)c(OC)cc1N(C)CCN(C)C + C#Cc1c(F)ccc2cc(O)cc(-c3ncc4c(N5CC6CCC(C5)N6)nc(OCC56CCCN5CC(F)C6)nc4c3F)c12 : 107
